The measured values listed here are drawn from ChEMBL document CHEMBL1145015.

Assay Details: Partition coefficient (logP)
Format: physicochemical
Test Context: octanol/water
Metric Name: logP
// keep it numeric: no unit symbol after the value

Use the examples below as a reference point.
{"Molecule": "Cc1ccc2c(c1)[n+]([O-])c(N)n[n+]2[O-]", "logP": 0.21}
{"Molecule": "Nc1n[n+]([O-])c2cc(Cl)ccc2[n+]1[O-]", "logP": 0.46}
{"Molecule": "Nc1n[n+]([O-])c2ccccc2[n+]1[O-] [TIRAPAZAMINE]", "logP": -0.34}

Next item in the queue.
Could you share which logP value was measured for "CS(=O)(=O)c1cccc2c1[n+]([O-])nc(N)[n+]2[O-]" ?
-1.38

* * *

Assay Details: Interexperimental difference between the hypoxic and aerobic cytotoxicity using human adenocarcinoma HT-29 cell line
Type: functional
Catalogue of HCR values
// keep it numeric: no unit symbol after the value

Use the examples below as a reference point.
{"Structure As Smiles": "Nc1n[n+]([O-])c2cc([N+](=O)[O-])ccc2[n+]1[O-]", "Metric Name": "HCR", "Value Observed": 14.8}
{"Structure As Smiles": "COc1cccc2c1[n+]([O-])nc(N)[n+]2[O-]", "Metric Name": "HCR", "Value Observed": 21.9}

Next item in the queue.
Could you share which HCR value was measured for "CN(C)c1cccc2c1[n+]([O-])c(N)n[n+]2[O-]" ?
0.18
